Source: paper PMC3487895

Target or test system: human transient receptor potential ankyrin 1 (hTRPA1) (Homo sapiens, UniProt O75762)
Construct: gene TRPA1; entire coding region (NM_007332.2)
Sequence (O75762 whole entry): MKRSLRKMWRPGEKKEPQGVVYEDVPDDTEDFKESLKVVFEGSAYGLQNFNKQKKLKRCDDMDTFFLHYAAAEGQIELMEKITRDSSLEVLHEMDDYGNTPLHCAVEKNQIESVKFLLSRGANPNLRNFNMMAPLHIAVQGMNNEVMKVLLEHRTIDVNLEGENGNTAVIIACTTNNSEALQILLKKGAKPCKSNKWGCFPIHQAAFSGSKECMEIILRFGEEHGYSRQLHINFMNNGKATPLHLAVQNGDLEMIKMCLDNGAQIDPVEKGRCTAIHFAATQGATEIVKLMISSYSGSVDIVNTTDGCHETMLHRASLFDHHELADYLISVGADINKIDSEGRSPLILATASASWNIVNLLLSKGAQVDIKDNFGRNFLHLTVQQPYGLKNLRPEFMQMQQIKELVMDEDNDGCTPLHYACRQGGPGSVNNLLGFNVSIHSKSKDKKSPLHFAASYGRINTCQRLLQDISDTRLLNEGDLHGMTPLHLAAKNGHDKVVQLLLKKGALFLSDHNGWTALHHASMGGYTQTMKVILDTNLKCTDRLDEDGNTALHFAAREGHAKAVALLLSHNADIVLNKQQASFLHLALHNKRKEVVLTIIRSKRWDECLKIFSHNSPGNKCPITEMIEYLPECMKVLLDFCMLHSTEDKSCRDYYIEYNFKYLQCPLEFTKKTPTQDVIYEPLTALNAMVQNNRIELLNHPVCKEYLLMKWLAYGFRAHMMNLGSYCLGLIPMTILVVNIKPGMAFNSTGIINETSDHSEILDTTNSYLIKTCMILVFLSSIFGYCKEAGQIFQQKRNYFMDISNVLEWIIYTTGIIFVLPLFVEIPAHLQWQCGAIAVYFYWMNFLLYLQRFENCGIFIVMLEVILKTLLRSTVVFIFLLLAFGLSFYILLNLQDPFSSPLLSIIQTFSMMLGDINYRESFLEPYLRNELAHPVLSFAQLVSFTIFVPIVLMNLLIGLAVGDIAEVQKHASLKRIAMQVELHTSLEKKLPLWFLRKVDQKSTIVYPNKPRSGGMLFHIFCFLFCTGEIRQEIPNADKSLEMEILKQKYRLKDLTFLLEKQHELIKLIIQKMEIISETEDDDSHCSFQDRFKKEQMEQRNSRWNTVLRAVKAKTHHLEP
Assay notes: calcium influx (FLIPR Calcium […] plate reader and Fura-2 imaging) in hTRPA1-expressing Flp-In […] cells; blocked by HC-030031
Type: cell-based
Measured property: EC50 (µM)

[[record]]
compound_smiles = "CC(C)=CCc1cc(/C=C/C(=O)O)ccc1OC(=O)CCc1ccccc1"
value_units = "µM"
measured_number = 15.5

